biological target: T1, V domain of human CD33 (human, UniProt P20138 18-139, limits assumed); experiment: SPR, Fab captured, 37C;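 note: biacore 8K surface plasmon resonance with Fabs held on an amine-coupled anti-Fab antibody surface, soluble monomeric CD33 domain injected as analyte, double-referenced 1:1 binding fit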
T1 construct: recombinant, fully glycosylated V domain; also called Human CD33 V domain
The following binders are listed with their measured kon values.
Give your result in M⁻¹ s⁻¹ as a bare value.

ADI-11826 Fab (Fab, V domains shown, Fab fragment; also called Ab26) VH: EVQLVESGGGLVQPGGSLRLSCAASGFTFPGYWMSWVRQAPGKGLEWVANINQDGSEVYYVDSVKGRFTISRDNAKNSLYLQMNSLRAEDTAVYYCAREANYYGNVGDDYWGQGTLVTVSS VL: DIQMTQSPSSLSASVGDRVTITCRASQSIYNYLNWYQQKPGKAPKLLIYAASSTQSGVPSRFSGSGSGTDFTLTISSLQPEDFATYYCQQAFHVPITFGGGTKVEIK    5.12e+06

Now let's try a different one.
Prompt: Entry ADI-11828 Fab (Fab, V domains shown, Fab fragment; also called Ab27) VH: EVQLVESGGGLVQPGGSLRLSCAASGFTFSSYWMSWVRQAPGKGLEWVANINQDGSEVYYVDSVKGRFTISRDNAKNSLYLQMNSLRAEDTAVYYCARDVGPGIAYQGHFDYWGQGTLVTVSS VL: DIQMTQSPSSLSASVGDRVTITCRASQSIYYYLNWYQQKPGKAPKLLIYAASSRQSGVPSRFSGSGSGTDFTLTISSLQPEDFATYYCQQVYDTPLTFGGGTKVEIK has what kon?
Completion: 3.37e+06

The reported measurements were obtained from patent US20220380459A1.
